Target: T1, human PCSK9 (human, UniProt Q8NBP7 31-692)
T1 construct: also called hPCSK9; huPCSK9
Experiment: PCSK9:EGFA FRET 2, competition
readout: IC50 (nM)
Write down the numeric answer in nM and omit the unit.

Query block: Looking for the measured IC50 of PCSK9-PKE2 tandem 4472_D08 (designed binder, not shown: small tags and cut ends, The two parts are one polypeptide in the real molecule, joined by the undisclosed linker N; they are given here as separate chains.) PCSK9 10Fn3: MGVSDVPRDLEVVAATPTSLLISWDAPAEGYGYYRITYGETGGNSPVQEFTVPVSKGTATISGLKPGVDYTITVYAVEFDFPGAGYYHRPISINYRTE PKE2 10Fn3: GVSDVPRDLEVVAATPTSLLISWDAPAVTVRYYRITYGREVQKYSDLGPLYIYQEFTVPGSKSTATISGLKPGVDYTITVYAVTGSGESPASSKPISINYRTEHHHHHH , can you help?
Result block: 5.22

Query block: Ok, now PCSK9-PKE2 tandem 4472_C08 (designed binder, The real molecule is ONE polypeptide: PCSK9 domain, undisclosed linker 'E' (a code letter, not the residue), PKE2 domain. It is given here as two chains because the linker letters are unknown., not shown: The inter-domain linker) PCSK9 domain: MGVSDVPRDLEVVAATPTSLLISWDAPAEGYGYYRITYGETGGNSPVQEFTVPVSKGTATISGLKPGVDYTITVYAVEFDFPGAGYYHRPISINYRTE PKE2 domain: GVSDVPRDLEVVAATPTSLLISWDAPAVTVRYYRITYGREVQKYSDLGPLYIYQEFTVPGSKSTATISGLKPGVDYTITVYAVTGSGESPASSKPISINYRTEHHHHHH
Result block: 5.09

Query block: Ok, now PCSK9-PKE2 tandem 4472_F06 (designed binder, The real molecule is ONE polypeptide: PCSK9 domain, undisclosed linker 'G' (a code letter, not the residue), PKE2 domain. It is given here as two chains because the linker letters are unknown., not shown: The inter-domain linker) PCSK9 domain: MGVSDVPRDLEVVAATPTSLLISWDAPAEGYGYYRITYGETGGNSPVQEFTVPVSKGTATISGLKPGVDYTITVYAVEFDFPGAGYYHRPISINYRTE PKE2 domain: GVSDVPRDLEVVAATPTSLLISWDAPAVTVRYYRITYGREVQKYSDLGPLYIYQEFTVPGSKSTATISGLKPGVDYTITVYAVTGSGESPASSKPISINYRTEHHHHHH
Result block: 3.42
